Reported Cell viability by item:
- Species: Rattus norvegicus
- protocol: Percent viability of rat hippocampal neurons exposed to hydrogen peroxide (50 uM) in the presence of the test agent (5 uM)
- Type: functional

smiles_repr	Cell viability (%)
CCCN(CCC)Cc1cc(OC)c(O)c(OC)c1.Cl	5.4
CCCCCNCc1cc(OC)c(O)c(OC)c1.Cl	29
COc1cc(CN(C)C)cc(OC)c1O.Cl	5.2
CCCCCCCOc1c(O)cc(CN(C)C)cc1O.Cl	47
CCN(CC)Cc1cc(OC)c(O)c(OC)c1.Cl	3.7
CC(C)Oc1cc(CN(C)C)cc(OC(C)C)c1O.Cl	35.8
CCCCCCOc1cc(CN(C)C)cc(OCCCCCC)c1O.Cl	73.1
CCCCCN(CCCCC)Cc1cc(OC)c(O)c(OC)c1.Cl	35.5
CCOc1cc(CN(C)C)cc(OCC)c1O.Cl	14.7
CNCc1cc(OC)c(O)c(OC)c1.Cl	7.5
CCCNCc1cc(OC)c(O)c(OC)c1.Cl	13.3
CCCCCCCCNCc1cc(OC)c(O)c(OC)c1.Cl	59.8
CCCCCCCOc1cc(CN2CCN(CCO)CC2)cc(OC)c1O.Cl.Cl	63
CCCCCCCNCc1cc(OC(C)C)c(O)c(OC(C)C)c1.Cl	43.5
CCNCc1cc(OC)c(O)c(OC)c1.Cl	3.1
CCCCCCCCCNCc1cc(OC)c(O)c(OC)c1.Cl	47.1
CCCCOc1cc(CN(C)C)cc(OCCCC)c1O.Cl	35.8
CN(C)Cc1cc(OC2CCCC2)c(O)c(OC2CCCC2)c1.Cl	28.9
CCCCCCCOc1cc(CN(C)C)cc(OCCCCCCC)c1O.Cl	75.7
CCCCNCc1cc(OC)c(O)c(OC)c1.Cl	17.1
CCCCCCCOc1cc(CN(C)C)cc(OC)c1O.Cl	44
CCCCCCCOc1c(O)cc(CN2CCN(CCO)CC2)cc1O.Cl.Cl	50.3
CCCCN(CCCC)Cc1cc(OC)c(O)c(OC)c1.Cl	26.4
COc1cc(CN(CC(C)C)CC(C)C)cc(OC)c1O.Cl	28.7
CCCCCCNCc1cc(OC)c(O)c(OC)c1.Cl	42.6
CCCOc1cc(CN(C)C)cc(OCCC)c1O.Cl	31.3
CC(C)Oc1cc(CN2CCN(CCO)CC2)cc(OC(C)C)c1O.Cl.Cl	45.3
CCC(CC)Oc1cc(CN(C)C)cc(OC(CC)CC)c1O.Cl	15.2
CCCCCCCNCc1cc(OC)c(O)c(OC)c1.Cl	48.3
CCCCCNCc1cc(OC(C)C)c(O)c(OC(C)C)c1.Cl	42.8
CCCCCOc1cc(CN(C)C)cc(OCCCCC)c1O.Cl	51.2
